- System: Human immunodeficiency virus 1
- ASSAY_NOTES: Inhibitory activity against HIV-1 double mutants strain 103N and 181C
- Type: functional, organism-based
pIC50: −log10 of the molar value.
We use 7 as the dividing line for pIC50: on or above the line is rule met, below is rule not met.

Here are 4 compounds together with their reported answers.
STRUCTURE	LABEL
O=C1Nc2ccc(Cl)cc2[C@@](C#CC2CC2)(C(F)(F)F)O1	rule met
CCc1c(C)nc(O)c(N(C)C)c1C(=O)c1cccc(Br)c1	rule not met
CCc1c(C)nc(O)c(N(C)C)c1C(=O)c1cccc(/C(C)=C/C#N)c1	rule not met
CCc1c(C)nc(O)c(N(C)C)c1C(=O)c1cccc(/C=C/C#N)c1	rule met

Say whether `CCc1c(C)nc(O)c(N(C)C)c1Cc1cc(Cl)cc(Cl)c1` shows pIC50 of 7 or more.
rule not met

Note, next up: `CCc1c(C)[nH]c(=O)c(N(C)C)c1Cc1cc(C)cc(C)c1`
rule not met

Note, next up: `CCOCn1c(Cc2ccccc2)c(C(C)C)c(=O)[nH]c1=O`
rule not met

Note, next up: `Cc1ccnc2c1NC(=O)c1cccnc1N2C1CC1`
rule met

Note, next up: `CCc1c(C)nc(O)c(N(C)C)c1Cc1cccc(/C=C/C#N)c1`
rule met
